- Experimental system: human androgen receptor (Homo sapiens, UniProt P10275)
- Construct: expressed in transfected cells; host or cells: COS-7 cells (ATCC)
- Sequence (P10275 whole entry): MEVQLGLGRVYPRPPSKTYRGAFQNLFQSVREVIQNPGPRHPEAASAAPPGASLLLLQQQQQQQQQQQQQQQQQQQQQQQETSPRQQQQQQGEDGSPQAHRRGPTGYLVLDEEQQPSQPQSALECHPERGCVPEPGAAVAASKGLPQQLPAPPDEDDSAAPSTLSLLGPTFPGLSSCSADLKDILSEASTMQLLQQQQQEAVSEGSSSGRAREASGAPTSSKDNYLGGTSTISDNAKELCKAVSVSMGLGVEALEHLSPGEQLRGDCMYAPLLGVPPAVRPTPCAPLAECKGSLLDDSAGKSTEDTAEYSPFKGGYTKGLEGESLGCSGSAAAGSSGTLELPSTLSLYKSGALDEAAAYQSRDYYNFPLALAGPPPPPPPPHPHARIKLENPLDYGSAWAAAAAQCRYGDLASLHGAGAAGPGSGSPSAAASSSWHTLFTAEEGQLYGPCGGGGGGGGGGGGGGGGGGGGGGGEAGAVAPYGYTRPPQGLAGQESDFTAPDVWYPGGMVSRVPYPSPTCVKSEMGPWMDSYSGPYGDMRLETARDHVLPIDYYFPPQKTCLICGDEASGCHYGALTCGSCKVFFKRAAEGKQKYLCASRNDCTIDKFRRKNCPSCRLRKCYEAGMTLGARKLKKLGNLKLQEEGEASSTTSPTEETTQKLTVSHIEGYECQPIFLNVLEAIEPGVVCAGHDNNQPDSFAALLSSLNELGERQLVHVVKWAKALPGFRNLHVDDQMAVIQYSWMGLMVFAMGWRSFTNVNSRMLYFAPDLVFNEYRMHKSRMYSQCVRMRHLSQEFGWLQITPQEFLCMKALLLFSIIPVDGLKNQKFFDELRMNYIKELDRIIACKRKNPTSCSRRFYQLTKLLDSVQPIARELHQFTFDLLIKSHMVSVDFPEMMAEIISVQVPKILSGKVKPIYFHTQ
- Procedure details: Antagonist activity for AR: MMTV-luc reporter transcription in COS-7 cells transfected with human AR, stimulated with DHT
- Format: cell-based
Quick reference for IC50 among some compounds
Report the value in nM with no unit label.

Here is how some compounds turned out for IC50.
>>> readout_number("N#Cc1ccc(N2CCc3c(ncnc3Nc3ccc(C(=O)N4CCCCCC4)cn3)C2)cc1C(F)(F)F [Example 6]")
130
>>> readout_number("CCNC(=O)c1ccc(Nc2ncnc3c2CCN(c2ccc(C#N)c(C(F)(F)F)c2)C3)nn1 [Example 10]")
7
>>> readout_number("COc1ccc(Nc2ncnc3c2CCN(c2ccc(C#N)c(C(F)(F)F)c2)C3)cc1OC [Example 26]")
1100
>>> readout_number("COc1ccc(Nc2nc(C#N)nc3c2CCN(c2ccc(C#N)c(C(F)(F)F)c2)C3)cc1 [Example 47]")
700
>>> readout_number("N#Cc1ccc(N2CCc3c(ncnc3Nc3ccc(C(=O)NC4CC4)nn3)C2)cc1C(F)(F)F [Example 9]")
30

Ask: Look up IC50: CC(C)(C)OC(=O)NCCNC(=O)c1ccc(Nc2ncnc3c2CCN(c2ccc(C#N)c(C(F)(F)F)c2)C3)nn1 [Example 8]
Result: 59
